measured target: TICA0212 Fab
assay: HTRF competition binding selectivity assay, TICA0212 His-Fab
Parameters: species or system human
experimental setup: Table 7, DMSO normalised; 5 nM biotinylated ticagrelor, 1 nM His Fab; read-out: IC50 (uM) for inhibition of biotinylated ticagrelor binding to TICA0212 Fab
Reported IC50 values follow for various compounds
Write the numeric value and append its unit.

CCCSc1nc(N[C@@H]2C[C@H]2c2ccc(F)c(F)c2)c2nnn([C@@H]3C[C@H](O)[C@@H](O)[C@H]3O)c2n1 [TAM]
0.031 µM

Next up:
## Task Indicate its recorded IC50; the compound in question is CCCSc1nc(N[C@@H]2C[C@H]2c2ccc(F)c(F)c2)c2nnn([C@@H]3C[C@H](OCCO)[C@@H](O)[C@H]3O)c2n1 [Ticagrelor]
## Result 0.035 µM

----------
measured target: TICA0049 Fab
assay: HTRF competition binding selectivity assay, TICA0049 His-Fab
Design: species or system human
experimental setup: first series (Table 2), not DMSO normalised; read-out: IC50 (uM) for inhibition of biotinylated ticagrelor binding to TICA0049 his-Fab
observation type: IC50 (µM)
Please state the figure in µM; there is no need to write the unit.

Solved entries:
CCCSc1nc(N[C@@H]2C[C@H]2c2ccc(F)c(F)c2)c2nnn([C@@H]3C[C@H](OCCO)[C@@H](O)[C@H]3O)c2n1
0.257
CSCCNc1nc(SCCC(F)(F)F)nc2c1ncn2[C@@H]1O[C@H](COP(=O)(O)OP(=O)(O)C(Cl)(Cl)P(=O)(O)O)[C@@H](O)[C@H]1O
208

Next up:
## Task Indicate its recorded IC50; the compound in question is CC(=O)NC[C@H]1CN(c2ccc(N3CCOCC3)c(F)c2)C(=O)O1
## Result 467

----------
Reported IC50 values follow for various compounds
measured target: TICA0049 Fab
assay: HTRF competition binding selectivity assay, TICA0049 His-Fab
Design: species or system human
experimental setup: second series (Table 3), DMSO normalised; read-out: IC50 in competition binding selectivity studies, TICA0049
Please state the figure in µM; there is no need to write the unit.

Solved entries:
CSCCNc1nc(SCCC(F)(F)F)nc2c1ncn2[C@@H]1O[C@H](COP(=O)(O)OP(=O)(O)C(Cl)(Cl)P(=O)(O)O)[C@@H](O)[C@H]1O
188
CCCSc1nc(N[C@@H]2C[C@H]2c2ccc(F)c(F)c2)c2nnn([C@@H]3C[C@H](O)[C@@H](O)[C@H]3O)c2n1
0.366
CCCC(=O)Nc1ncnc2c1ncn2[C@@H]1O[C@@H]2COP(=O)(O)O[C@H]2[C@H]1OC(=O)CCC
865
CC(=O)NC[C@H]1CN(c2ccc(N3CCOCC3)c(F)c2)C(=O)O1
902

Next up:
## Task Indicate its recorded IC50; the compound in question is CCCSc1nc(N[C@@H]2C[C@H]2c2ccc(F)c(F)c2)c2nnn([C@@H]3C[C@H](OCCO)[C@@H](O)[C@H]3O)c2n1
## Result 0.368

Where do the numbers come from? From patent US12391768B2.
